- TESTED TARGET: SOS1 and KRAS G12D (Homo sapiens (Human), UniProt Q07889)
- Sequence (Q07889 564-1049, stated change not applied): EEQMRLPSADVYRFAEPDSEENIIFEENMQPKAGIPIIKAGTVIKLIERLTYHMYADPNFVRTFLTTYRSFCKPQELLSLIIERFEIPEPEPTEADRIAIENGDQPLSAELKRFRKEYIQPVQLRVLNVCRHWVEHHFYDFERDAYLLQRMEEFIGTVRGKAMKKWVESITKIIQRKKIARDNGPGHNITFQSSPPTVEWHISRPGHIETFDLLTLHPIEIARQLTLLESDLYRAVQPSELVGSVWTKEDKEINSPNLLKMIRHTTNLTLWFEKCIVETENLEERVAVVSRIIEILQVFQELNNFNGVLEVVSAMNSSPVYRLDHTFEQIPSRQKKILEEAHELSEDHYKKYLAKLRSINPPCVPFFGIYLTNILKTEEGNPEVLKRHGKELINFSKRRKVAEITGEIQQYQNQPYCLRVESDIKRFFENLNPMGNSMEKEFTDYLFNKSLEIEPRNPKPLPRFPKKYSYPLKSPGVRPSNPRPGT
- EXPERIMENTAL DETAILS: KRAS::SOS1 AlphaScreen Binding Assay
- STATED CONDITIONS: SOS1 (564-1049), KRAS G12D (1-169), GDP
MEASUREMENT TYPE: IC50

INSERT INTO assay_data (molecule, tested_target, value) VALUES
  ('Cc1nc(N[C@H](C)c2cccc(C(F)F)c2F)c2cn(N3CCOCC3)c(=O)c(-c3ccncc3)c2n1', 'SOS1 and KRAS G12D (Homo sapiens (Human), UniProt Q07889)', '≤ 15 nM'),
  ('Cc1nc(N[C@H](C)c2cccc(C(F)(F)CO)c2)c2cn(N3CCOCC3)c(=O)c(F)c2n1', 'SOS1 and KRAS G12D (Homo sapiens (Human), UniProt Q07889)', '≤ 15 nM'),
  ('Cc1nc(N[C@H](C)c2cccc(C(F)F)c2F)c2cn(N3CCOCC3)c(=O)c(Br)c2n1', 'SOS1 and KRAS G12D (Homo sapiens (Human), UniProt Q07889)', '≤ 15 nM'),
  ('Cc1nc(N[C@H](C)c2cccc(C(F)(F)F)c2C)c2cn(N3CCOCC3)c(=O)c(-c3ccc(C#N)nc3)c2n1', 'SOS1 and KRAS G12D (Homo sapiens (Human), UniProt Q07889)', '15 to 150 nM');

# evaluate next
I'd like to know its IC50. The molecule in question is Cc1nc(N[C@H](C)c2cccc(C(F)F)c2F)c2cn(N3CCOCC3)c(=O)c(-c3cc(C#N)ccc3F)c2n1
15 to 150 nM
